Give measured MHC for each item. Keep answers brief.
Tested on: human erythrocytes
Assay: MHC hemolysis assay
Type: cell-based
Conditions: hemolysis, human erythrocytes, 37° C. 2 hours

>>> experimental_result("C[C@@H]1[C@H](O)[C@@H](C)/C=C/C=C/C=C/C=C/C=C/C=C/C=C/[C@H](O[C@@H]2O[C@H](C)[C@@H](O)[C@H](N)[C@H]2O)C[C@@H]2O[C@](O)(C[C@@H](O)C[C@@H](O)[C@H](O)CC[C@@H](O)C[C@@H](O)CC(=O)O[C@H]1C)C[C@H](O)[C@H]2C(=O)O [C2′epiAmB, C2′epi-Amphotericin B]")
">500 µM"
>>> experimental_result("CC1C=CC=CC=CC=CC=CC=CC=CC(OC2OC(C)C(O)C(N)C2O)CC2OC(O)(CC(O)CC(O)C(O)CCC(O)CC(O)CC(=O)OC(C)C(C)C1O)CC(O)C2C(=O)NCCO (stereo not drawn) [Compound BA]")
">500 µM"

Exam item: Name the reported MHC value associated with the compound CNC(=O)C1C(O)CC2(O)CC(O)CC(O)C(O)CCC(O)CC(O)CC(=O)OC(C)C(C)C(O)C(C)C=CC=CC=CC=CC=CC=CC=CC(OC3OC(C)C(O)C(N)C3O)CC1O2 (stereo not drawn) [BB]
Marked response: >500 µM
